Each recorded value in this set is attributed to paper PMC9482650.

- Experimental system: MAGI1_5, Q96QZ7
- Sequence (Q96QZ7 986-1098): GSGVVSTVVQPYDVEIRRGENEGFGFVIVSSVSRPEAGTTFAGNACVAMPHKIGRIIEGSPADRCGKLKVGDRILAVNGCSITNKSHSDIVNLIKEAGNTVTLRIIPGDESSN
- Test details: holdup assay
- Design: key: below the threshold = too weak to quantify, mostly under pKd 3.1 to 4
- Settings: plain residues with an end cap or a label only (N-terminal biotin on a linker: ttds)
Metric name: pKd

• PKTPPTDTSV [KIR3DL3, Q8N743] = below the threshold
• RSLEEEESQL [GRASP, Q7Z6J2] = below the threshold
• QSARYRDTEL [TJP2, Q9UDY2] = below the threshold
